measurement.label: melting point (°C)
Numbers only here, please. The scale is °C.

Incoming: Give its melting point value. Item: CCc1ccc(C)cc1
Outgoing: -62

Incoming: Also Cc1ccc(CC#N)cc1 , if possible.
Outgoing: 18

Incoming: Also CCOC(=O)CC(C)=O [Ethyl 3-oxobutanoate] , if possible.
Outgoing: -43

* * *

The compounds listed here are annotated with their melting point.
Numbers only here, please. The scale is °C.

[
  {
    "compound": "OCCN(CCO)C(CO)(CO)CO [2,2-bis(hydroxymethyl)-2,2',2''-nitrilotriethanol]",
    "unit.annotation": "°C",
    "melting point": 104
  },
  {
    "compound": "COC(=O)c1ccc(O)cc1 [methylparaben]",
    "unit.annotation": "°C",
    "melting point": 131
  },
  {
    "compound": "CCCCCOC(C)=O [amyl_acetate]",
    "unit.annotation": "°C",
    "melting point": -100
  },
  {
    "compound": "CN(C)CC(=O)O",
    "unit.annotation": "°C",
    "melting point": 186
  },
  {
    "compound": "CC(C(=O)O)c1ccc(-c2ccccc2)c(F)c1 (centres undefined)",
    "unit.annotation": "°C",
    "melting point": 114
  },
  {
    "compound": "OC(COc1ccccc1)COc1ccccc1",
    "unit.annotation": "°C",
    "melting point": 82
  },
  {
    "compound": "OB(O)c1ccc(C(F)(F)F)cc1F",
    "unit.annotation": "°C",
    "melting point": 114
  },
  {
    "compound": "CCOC(=O)C1c2ccccc2Oc2ccccc21 [ethyl xanthene-9-carboxylate]",
    "unit.annotation": "°C",
    "melting point": 67
  }
]

Here's the next entry for you.
Incoming: Give its melting point value. Item: C[C@]12C[C@H](O)[C@H]3[C@@H](CCC4=CC(=O)CC[C@@]43C)[C@@H]1CC[C@@H]2C(=O)CO
Outgoing: 145

* * *

The compounds listed here are annotated with their melting point.
The reply should read as a number followed by its unit.

Field: example entries. Status: answers known.
[
  {
    "compound": "Cc1ccccc1F [2-fluorotoluene]",
    "observed": "-87 °C"
  },
  {
    "compound": "NCCCNCCCCNCCCN [spermine]",
    "observed": "29 °C"
  },
  {
    "compound": "O=C(O)c1ccsc1 [thiophene-3-carboxylic acid]",
    "observed": "139 °C"
  },
  {
    "compound": "O=C(O)c1cc(/N=N/c2ccc(S(=O)(=O)Nc3ccccn3)cc2)ccc1O",
    "observed": "249 °C"
  },
  {
    "compound": "CN1[C@@H]2CC[C@H]1CC(=O)C2 [Tropinone]",
    "observed": "43 °C"
  }
]

Incoming: Give its melting point value. Item: CCCC=CB(O)O [1-pentenylboronic acid]
Outgoing: 80 °C

Incoming: Also C=C(CC(=O)O)C(=O)O [itaconic acid] , if possible.
Outgoing: 167 °C

Incoming: Also O=[N+]([O-])c1cccc2ccccc12 [1-Nitronaphthalene] , if possible.
Outgoing: 62 °C

Incoming: Also CC(=O)O[C@@]12CO[C@@H]1C[C@H](O)[C@@]1(C)C(=O)[C@H](O)C3=C(C)[C@@H](OC(=O)[C@H](O)[C@@H](NC(=O)OC(C)(C)C)c4ccccc4)C[C@@](O)([C@@H](OC(=O)c4ccccc4)[C@H]21)C3(C)C [Docetaxel] , if possible.
Outgoing: 232 °C

* * *

The compounds listed here are annotated with their melting point.
Counter-ions that a name gives are not always drawn.
The reply should read as a number followed by its unit.

Field: example entries. Status: answers known.
[
  {
    "compound": "Cc1ccc(Cl)c([N+](=O)[O-])c1",
    "melting point": "7 °C"
  },
  {
    "compound": "OCc1ccccn1",
    "melting point": "-6 °C"
  },
  {
    "compound": "Nc1ccc2cc3ccccc3cc2c1",
    "melting point": "237 °C"
  },
  {
    "compound": "CC(c1cc2ccccc2s1)N(O)C(N)=O (stereo not given)",
    "melting point": "145 °C"
  },
  {
    "compound": "Cc1cccc(-c2ccccc2)c1 [1-methyl-3-phenylbenzene]",
    "melting point": "5 °C"
  },
  {
    "compound": "CC(O)CN (stereo not given) [1-Aminopropan-2-ol]",
    "melting point": "-2 °C"
  },
  {
    "compound": "Cc1cc(O)cc(C)c1Cl [4-chloro-3,5-dimethylphenol]",
    "melting point": "115 °C"
  },
  {
    "compound": "O=C1C=CC(=O)c2ccccc21",
    "melting point": "126 °C"
  },
  {
    "compound": "CC(=O)OC1CCC2(C)C(=CCC3C2CCC2(C)C3CCC2(O)C#Cc2ccccc2)C1 (stereo not given) [17-hydroxy-21-phenylpregn-5-en-20-yn-3-yl acetate]",
    "melting point": "148 °C"
  }
]

Incoming: Give its melting point value. Item: COC=O [methyl formate]
Outgoing: -100 °C

* * *

measurement.label: melting point (°C)
Numbers only here, please. The scale is °C.

Field: example entries. Status: answers known.
[
  {
    "compound": "Cc1ccc(CCc2ccc(C)cc2)cc1 [1,2-di(p-tolyl)ethane]",
    "melting point / °C": 81
  },
  {
    "compound": "CCCCOC(=O)c1ccc(N)cc1 [butamben]",
    "melting point / °C": 58
  },
  {
    "compound": "Cc1cc(Cl)c(C)cc1N [4-chloro-2,5-dimethylaniline]",
    "melting point / °C": 92
  },
  {
    "compound": "CCC(C(=O)O)c1ccccc1 (stereo unspecified) [2-phenylbutyric acid]",
    "melting point / °C": 38
  },
  {
    "compound": "CNc1ccc(Cl)cc1C(=O)c1ccccc1 [5-chloro-2-methylaminobenzophenone]",
    "melting point / °C": 96
  },
  {
    "compound": "Oc1ccc(F)cc1 [4-Fluorophenol]",
    "melting point / °C": 45.5
  }
]

Incoming: Give its melting point value. Item: N#Cc1cc(Br)ccc1I [5-bromo-2-iodobenzonitrile]
Outgoing: 121

Incoming: Also COC(=O)c1[nH]c(C(=O)OC)c(O)c1O [dimethyl 3,4-dihydroxypyrrole-2,5-dicarboxylate] , if possible.
Outgoing: 211

Incoming: Also COc1cc(OC)cc(OC)c1 [1,3,5-trimethoxybenzene] , if possible.
Outgoing: 53

Incoming: Also C[C@]12CC[C@H]3[C@@H](CCC4=CC(=O)CC[C@@]43C)[C@@H]1CC[C@@H]2O [(17beta)-17-Hydroxyandrost-4-en-3-one] , if possible.
Outgoing: 155

Incoming: Also CC(=O)Nc1ccccc1O [2-acetamidophenol] , if possible.
Outgoing: 207

* * *

measurement.label: melting point (°C)
Numbers only here, please. The scale is °C.

Field: example entries. Status: answers known.
[
  {
    "molecule": "O=C(O)CCCCc1ccccc1",
    "measurement.label": "melting point",
    "unit.annotation": "°C",
    "observed": 59
  },
  {
    "molecule": "Cc1ccccc1C(=O)O",
    "measurement.label": "melting point",
    "unit.annotation": "°C",
    "observed": 105
  },
  {
    "molecule": "Clc1cc(Cl)c(Cl)cc1Cl",
    "measurement.label": "melting point",
    "unit.annotation": "°C",
    "observed": 139
  },
  {
    "molecule": "C#CCCC(C)C",
    "measurement.label": "melting point",
    "unit.annotation": "°C",
    "observed": -124
  },
  {
    "molecule": "CC[C@H](C)C(=O)O[C@H]1C[C@@H](C)C=C2C=C[C@H](C)[C@H](CC[C@@H]3C[C@@H](O)CC(=O)O3)[C@H]21 [Lovastatin]",
    "measurement.label": "melting point",
    "unit.annotation": "°C",
    "observed": 175
  }
]

Here's the next entry for you.
Incoming: Give its melting point value. Item: BrCCCCOc1ccccc1
Outgoing: 42

* * *

measurement.label: melting point
The reply should read as a number followed by its unit.

Field: example entries. Status: answers known.
[
  {
    "compound": "CN(C)c1ccc(C=C/C(=N\\Nc2ccccc2)c2ccccc2)cc1",
    "melting point": "128 °C"
  },
  {
    "compound": "OCC(O)CO [glycerol]",
    "melting point": "18 °C"
  },
  {
    "compound": "Cl/C=C/CCl [1,3-dichloropropene, cis trans]",
    "melting point": "-84 °C"
  },
  {
    "compound": "C=CC=O [Acrylaldehyde]",
    "melting point": "-87 °C"
  },
  {
    "compound": "C1COCOC1 [1,3-Dioxane]",
    "melting point": "-42 °C"
  },
  {
    "compound": "Nc1cc2ccccc2cc1N [Naphthalene-2,3-diamine]",
    "melting point": "190 °C"
  },
  {
    "compound": "Cc1ccccc1B(O)O [2-methylbenzeneboronic acid]",
    "melting point": "163 °C"
  },
  {
    "compound": "CCOC(=O)CC(C)=O [ethyl_acetoacetate]",
    "melting point": "-43 °C"
  },
  {
    "compound": "CC1(C)CCCC(C)(C)N1 [2,2,6,6-tetramethylpiperidine]",
    "melting point": "-59 °C"
  },
  {
    "compound": "Cc1c2oc3c(C)ccc(C(=O)NC4C(=O)NC(C(C)C)C(=O)N5CCCC5C(=O)N(C)CC(=O)N(C)C(C(C)C)C(=O)OC4C)c3nc-2c(C(=O)NC2C(=O)NC(C(C)C)C(=O)N3CCCC3C(=O)N(C)CC(=O)N(C)C(C(C)C)C(=O)OC2C)c(N)c1=O (stereo not drawn) [Dactinomycin]",
    "melting point": "242 °C"
  }
]

Incoming: Give its melting point value. Item: O=C(OCCOCn1c2N\C(=N/C(=O)c2nc1)N)C [O-Acetylacyclovir]
Outgoing: 242 °C

Incoming: Also Cc1ccc2sccc2c1 [5-methylbenzo[b]thiophene] , if possible.
Outgoing: 34 °C

Incoming: Also Fc1ccccc1-c1ccccc1 [2-fluorobiphenyl] , if possible.
Outgoing: 74 °C

Incoming: Also CCBr [bromoethane] , if possible.
Outgoing: -119 °C

Incoming: Also Cc1ccc(Cc2ccccc2)cc1 [4-benzyltoluene] , if possible.
Outgoing: 5 °C

Incoming: Also OCCCCCCO [1,6-hexanediol] , if possible.
Outgoing: 45 °C

Incoming: Also BrC(c1ccccc1)c1ccccc1 [benzhydryl bromide] , if possible.
Outgoing: 39 °C

Incoming: Also CC(Oc1ccc(Cl)cc1Cl)C(=O)O (stereo not drawn) [2-(2,4-dichlorophenoxy)propionic acid] , if possible.
Outgoing: 114 °C

Incoming: Also Cc1ccc(C)c(C(=O)O)c1 [2,5-dimethylbenzoic acid] , if possible.
Outgoing: 134 °C
